Origin of the recorded values: ChEMBL document CHEMBL4513216

- ASSAY_TEXT: Toxicity liver stage against HepG2, at 10uM
- Type: cell-based
- Set-up: test concentration 10 uM, cell line HepG2-A16-CD81EGFP
- CONDITION_DETAILS: human, HepG2-A16-CD81EGFP cells; read-out: INHIBITION

# COMPOUND, cytotoxicity at 10 µM
measured = [
    ("O=S(=O)(NC1=NCN(CCc2ccccc2)CN1)c1ccc(F)cc1", "3.47%"),
    ("COC(=O)CN(C(=O)c1cc(C(C)C)no1)c1cccc(F)c1", "11.3%"),
    ("CCOC(=O)N1CCN(CC(=O)Nc2nnc(C)s2)CC1", "1.31%"),
    ("O=C(CN1CCOc2ccccc2C1)NCc1cc2n(n1)CCNC2", "1.03%"),
    ("COCc1nc(N2CCC(CCO)CC2)c2cnn(C)c2n1", "1.22%"),
    ("O=C(CC1CC1)N1CCn2cc(Cn3cncn3)nc2C1", "-8.87%"),
    ("CC(=O)NCC1CCN(C(=O)NCCOc2ccc3c(c2)CCC3)CC1", "-5.31%"),
    ("O=C(CN1CCC(OCC2CCCO2)CC1)NCC(F)(F)F (configuration not stated)", "-1.2%"),
    ("CCCn1ncc2c(C(=O)Nc3n[nH]c(SC)n3)cc(C3CC3)nc21", "1.52%"),
    ("CS(=O)(=O)N1CCN(C(=O)c2ccco2)[C@H]2CS(=O)(=O)C[C@H]21", "-6.69%"),
    ("CCc1c(C)nc2ccccc2c1N1CCC(NC(C)=O)CC1", "11.2%"),
    ("COCc1noc(C2(c3ccc(F)cc3)CCOCC2)n1", "-25.3%"),
    ("CCN1Cc2c(C(=O)NC)ncn2-c2ccccc2S1(=O)=O", "-73%"),
    ("Cc1ncsc1CN1CCn2nc(CCC(=O)N3CCCC3)cc2C1", "-22.2%"),
    ("O=C(c1ccccc1)N1CCC2(CC1)CC(Oc1ccccc1)CO2 (configuration not stated)", "16.6%"),
    ("COCCO[C@H]1CCN(C(=O)c2ccc[nH]2)[C@H]1Cc1ccncc1", "-5.46%"),
    ("CC(C)Cc1ncc2c(n1)CN(c1nc(N(C)C)nc3c1CCCC3)C2", "2.27%"),
    ("CC(C)CN1CCNC(=O)C12CCN(S(=O)(=O)c1ccc(F)cc1)CC2", "-3.16%"),
    ("NC(=O)c1cc(C2CCCN(CCOCC3CC3)C2)n[nH]1 (configuration not stated)", "-11.5%"),
    ("O=c1[nH]nc2c(S(=O)(=O)N3CCCCC3)cccn12", "2.41%"),
    ("Cc1csc(CCCNC(C)CC(=O)Nc2cccc(C)c2C)n1 (configuration not stated)", "5.76%"),
    ("Cc1c(C(C)Nc2ncnc3sccc23)cnn1C (configuration not stated)", "40.1%"),
    ("O=C1NC2(CCN(CC3CC3)CC2)CC1c1ccccc1 (configuration not stated)", "-7.64%"),
    ("O=C(CCC1CCCO1)NCCc1ccccn1 (configuration not stated)", "-43.2%"),
    ("CO[C@H]1CCN(C2CCOCC2)C[C@@H]1Cc1ccccc1", "3.11%"),
    ("Cc1ccc(NC(=O)CN2CCCNC2=O)c(SC(F)(F)F)c1", "-1.96%"),
    ("CNS(=O)(=O)c1cc(C(=O)NC2COc3ccccc32)cc(C)c1C (configuration not stated)", "-1.51%"),
    ("Cc1cc(C)c(CNC(=O)C(C)Oc2ccccc2F)c(=O)[nH]1 (configuration not stated)", "6.99%"),
    ("O=C(Cc1ccsc1)N1CCN(CC2CC2)c2ncccc2C1", "-101%"),
    ("CC(C)N(Cc1cccnc1)C(=O)CNc1ccc(C#N)cc1", "1.44%"),
    ("CN1CCOC(C(=O)Nc2ccc3[nH]nnc3c2)C1 (configuration not stated)", "6.77%"),
    ("O=C(c1cc(=O)c(OCc2ccccc2)co1)N1CCSCC1", "-0.295%"),
    ("CSCC(C)(O)CNC(=O)Nc1ccc(C)cc1Br (configuration not stated)", "-9.83%"),
    ("Cc1cc(CN2C[C@@H]3COC[C@]3(CNC(=O)c3ccsc3)C2)no1", "1.41%"),
    ("Cc1cnc(N2CCC(c3ccccc3)CC2)nc1-c1ccnn1C", "4.68%"),
    ("CN1CCN(c2ccc(NC(=O)c3cccs3)c(C(F)(F)F)c2)CC1", "3.94%"),
    ("c1ccc(-n2cnnc2CCCN2CCOCC2)cc1", "-1.16%"),
    ("CC1c2ncc(Cn3cccn3)n2CCN1c1ncccn1 (configuration not stated)", "-108%"),
    ("COc1ccc(OC)c2c(C)cc(N(CCO)CCO)nc12", "-114%"),
    ("Cc1n[nH]c(C)c1CN1CC[C@@H]2[C@@H](CCC(=O)N2CCc2c[nH]cn2)C1", "-3%"),
    ("Cc1nc(C)n(CC2CCCN(CC3CCCCC3)C2)n1 (configuration not stated)", "2.04%"),
    ("CN(C)C(=O)CC1CC2(CCN(Cc3cccs3)CC2)c2ccccc21 (configuration not stated)", "-3.87%"),
]

* * *

Listed compounds paired with reported cytotoxicity at 10 µM
- ASSAY_TEXT: Toxicity liver stage against HepG2, at 10uM
- Assay type: cell-based
- Parameters: test concentration 10 uM, cell line HepG2-A16-CD81EGFP
- CONDITION_DETAILS: human, HepG2-A16-CD81EGFP cells; read-out: INHIBITION
RESULT_TYPE: cytotoxicity at 10 µM (%)

# COMPOUND, RESULT_TYPE, UNIT_ABBREV, RECORDED_VALUE
measured = [
    ("Cc1nnc(NCCc2coc(-c3ccccc3)n2)c(C#N)c1C", "cytotoxicity at 10 µM", "%", -14.3),
    ("O=C(c1cn(Cc2ccccc2)c2ncccc12)N1CCCCC1", "cytotoxicity at 10 µM", "%", 1.2),
    ("Cn1c2ncccc2c(=O)n1CC(=O)NCCc1c(F)cccc1F", "cytotoxicity at 10 µM", "%", -5.33),
    ("O=S(=O)(Nc1cnc(N2CCOCC2)nc1)c1ccc(C(F)(F)F)cc1", "cytotoxicity at 10 µM", "%", -2.73),
    ("CCCc1nnc(NCCc2noc(C3CCCC3)n2)o1", "cytotoxicity at 10 µM", "%", 20.2),
    ("Cn1cc(CN2CCCC(c3nc(O)cc(-c4cccs4)n3)C2)cn1 (stereo not drawn)", "cytotoxicity at 10 µM", "%", -5.89),
    ("CCc1nc(C2CCCN2C(=O)c2ncoc2CC)no1 (stereo not drawn)", "cytotoxicity at 10 µM", "%", -12.8),
    ("CC(C)(C)c1nnc2n1C(C(=O)N1CCCC1)CC2 (stereo not drawn)", "cytotoxicity at 10 µM", "%", 1.61),
    ("O=C(NCC(O)(c1ccco1)C1CC1)c1c(F)cccc1Cl (stereo not drawn)", "cytotoxicity at 10 µM", "%", -2.69),
    ("O=C(CCc1ccccc1)NCC1CCN(Cc2cccs2)CC1", "cytotoxicity at 10 µM", "%", -2.68),
    ("CCc1[nH]ncc1C(=O)N1CCCN(Cc2cnn(C(C)C)c2)CC1", "cytotoxicity at 10 µM", "%", -12),
    ("CN(C)c1cc2c(nn1)CCN(C(=O)C1CCc3ccccc31)C2 (stereo not drawn)", "cytotoxicity at 10 µM", "%", -12.2),
    ("Cc1noc(-c2c[nH]nc2C2CCCN2C(=O)c2ccccc2)c1C (stereo not drawn)", "cytotoxicity at 10 µM", "%", -8.77),
    ("CN(C)C(=O)N1CCC(c2nc3ccc(-c4ccccc4)cn3n2)CC1", "cytotoxicity at 10 µM", "%", 5.9),
    ("CC(=O)N1C[C@H](NS(=O)(=O)N2CCCC2)[C@@H](c2ccc(C)o2)C1", "cytotoxicity at 10 µM", "%", -1.91),
    ("C[C@@H]1CN(C2(C(=O)N3CCCCCC3)Cc3ccccc3C2)C[C@H](C)O1", "cytotoxicity at 10 µM", "%", -2.04),
    ("CCc1nccn1CCNC1CCN(c2nc3ccc(Cl)cc3s2)CC1", "cytotoxicity at 10 µM", "%", 28.8),
    ("OC1(CNCCCN2CCc3ccccc32)CCNC1 (stereo not drawn)", "cytotoxicity at 10 µM", "%", 11.5),
    ("CN(Cc1nnc(C2CC2)n1C)S(=O)(=O)c1ccccc1C#N", "cytotoxicity at 10 µM", "%", 14.9),
    ("O=C1O[C@@H]2CN(c3cnccn3)C[C@@H]2N1CCCc1ccc(F)cc1", "cytotoxicity at 10 µM", "%", -3.94),
    ("Clc1ccc(CNc2ccc(Cl)cn2)cc1", "cytotoxicity at 10 µM", "%", 6.96),
    ("CCN(CC)C(=O)c1cc(Br)cc(S(=O)(=O)N2CCOCC2)c1F", "cytotoxicity at 10 µM", "%", -2.43),
    ("c1cnc(-c2nc(CN3CCCN(Cc4cccs4)CC3)cs2)nc1", "cytotoxicity at 10 µM", "%", -7.66),
    ("Cc1ccsc1CN(c1nc(CCN)nc2ccccc12)C1CC1", "cytotoxicity at 10 µM", "%", 11.7),
    ("CN(C)c1cnnc(N2CCN(C(=O)CCC3CCCCC3)CC2)c1", "cytotoxicity at 10 µM", "%", -1.65),
    ("COc1ccc(Cl)cc1CN(C)C(=O)CN1C(=O)OC[C@@H]1C(C)C", "cytotoxicity at 10 µM", "%", -4.29),
    ("CCOC(=O)[C@H]1[C@@H](O)C(=O)N(C)C12CCN(C(=O)c1ccccc1)CC2", "cytotoxicity at 10 µM", "%", -6.53),
    ("Fc1cnc(N2CC[C@@H](N3CCOCC3)[C@@H]2Cc2ccccc2)nc1", "cytotoxicity at 10 µM", "%", 3.67),
    ("O=S(=O)(C1CC1)N1Cc2[nH]nc(COCC3CC3)c2C1", "cytotoxicity at 10 µM", "%", 16.4),
    ("Cn1cc(S(=O)(=O)NCC2CCN(C(=O)Oc3ccccc3)CC2)cn1", "cytotoxicity at 10 µM", "%", -8.36),
    ("CNc1cc(C(=O)NCCC2=CSC3=NCCCN23)ccn1", "cytotoxicity at 10 µM", "%", 8.71),
    ("c1cc(CN2CCCC3(CCN(CC4CCCO4)CC3)C2)n[nH]1 (stereo not drawn)", "cytotoxicity at 10 µM", "%", -101),
    ("CC(=O)NCc1nnc2n1CCN(Cc1cccs1)C2", "cytotoxicity at 10 µM", "%", -149),
]
